tested on: CCRF-CEM; assay: NCI tumour cell line growth inhibition, 48 h
Active and inactive are the calls of the source. Cut-off read from the data, not from the text of the source: active = GI50 up to about 1.1 µM and inactive = higher.
Please reply with one of these outcomes: active, inactive

Below are worked cases with known answers.
compound	class
COc1ccc(C23c4ccc(OC)cc4CC2(c2ccc([N+](=O)[O-])cc2)Cc2cc(OC)ccc23)cc1 (stereo not drawn)	inactive
COc1cc(-c2cc(=O)c3c(O)c(OC)c(OC)c(OC)c3o2)cc(OC)c1OC	inactive

Req: Recorded call for Cc1cc2c(cc1C)[n+]([O-])c(C(F)(F)F)c(C(=O)c1ccccc1)[n+]2[O-] ?
Resp: inactive

Req: Hi team, can someone confirm the assay call for COC(=O)Cc1c(C2C(CC(=O)OC)c3ccccc3N2C2OC(CO)C(O)C(O)C2O)[nH]c2ccccc12 (stereo not drawn) ?
Resp: inactive

Req: Given c1ccc2c(c1)SC(=C1Sc3ccccc3S1)S2 , state the outcome it received in this test.
Resp: inactive

Req: Would you mind telling me which call this test gave O=C(NC(Nc1ccc(F)cc1)(C(F)(F)F)C(F)(F)F)C(C(F)(F)F)C(F)(F)F ?
Resp: inactive

Req: Entry C/C(=N\NS(=O)(=O)c1ccc(C)cc1)c1c(O)cc(C)oc1=O : call = ?
Resp: inactive

Req: Kindly provide the recorded test outcome for the following compound: NC(=O)N/N=C/C(=C/Nc1ccccc1)[N+](=O)[O-]
Resp: inactive

Req: # fetch the recorded call for CCOC(=O)/C=C(\C(=O)OCC)n1ccc(=O)[nH]c1=O here
Resp: inactive

Req: Can you look up the reported call for O=C(CSc1nc2ccc(I)cc2c(=O)n1Cc1ccccc1)N/N=C/c1ccccc1 for me?
Resp: inactive
